- Species: Rattus norvegicus
- PROTOCOL DESCRIPTION: Open TG-GATES - Regimen: Daily Repeat
- Type: toxicity, organism-based, Sprague-Dawley
- Set-up: regimen Daily Repeat, gender Male, age 6 weeks
- CONDITION DETAILS: in vivo, po, 0 mg/kg, […], tissue Plasma, route gavage, dose level Control, time 7 day
PROPERTY: BUN (mg/dL)
The reply should be a number in mg/dL, with the unit left off.

These recorded examples may help you get a feel for the data.
MOLECULE: CN1C(=O)CN=C(c2ccccc2)c2cc(Cl)ccc21
BUN [mg/dL]: 17.8

MOLECULE: CCOc1ccc(NC(=O)CC(C)O)cc1 (stereo not given)
BUN [mg/dL]: 15.4

MOLECULE: COC1=CC(=O)C[C@@H](C)[C@]12Oc1c(Cl)c(OC)cc(OC)c1C2=O
BUN [mg/dL]: 14.6

Answer with the recorded BUN of NNC(=O)c1ccncc1 only.
19.6

Answer with the recorded BUN of COc1ccc2[nH]c([S+]([O-])Cc3ncc(C)c(OC)c3C)nc2c1 (stereo not given) only.
16.8
